Each entry below carries its reported kon.
study_target: T1, hGITR.mFc (human)
T1 construct: soluble dimeric construct with mouse Fc; also called dimeric human GITR
T1 chain: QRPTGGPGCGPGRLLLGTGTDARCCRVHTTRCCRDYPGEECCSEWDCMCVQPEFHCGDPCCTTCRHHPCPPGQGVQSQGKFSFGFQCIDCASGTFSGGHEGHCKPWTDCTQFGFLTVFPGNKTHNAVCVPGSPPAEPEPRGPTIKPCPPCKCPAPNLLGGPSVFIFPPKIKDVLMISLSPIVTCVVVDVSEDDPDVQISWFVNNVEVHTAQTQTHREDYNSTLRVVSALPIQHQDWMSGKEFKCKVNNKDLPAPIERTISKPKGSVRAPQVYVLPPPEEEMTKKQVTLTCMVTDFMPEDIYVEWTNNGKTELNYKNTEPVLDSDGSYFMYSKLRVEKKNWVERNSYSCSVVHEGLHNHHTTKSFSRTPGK
assay_remarks: SPR 37C, mAb capture
quantity_name: kon (M⁻¹ s⁻¹)

• H4H14525P (antibody, human IgG4, V domains shown, human IgG4 (H4H)) VH: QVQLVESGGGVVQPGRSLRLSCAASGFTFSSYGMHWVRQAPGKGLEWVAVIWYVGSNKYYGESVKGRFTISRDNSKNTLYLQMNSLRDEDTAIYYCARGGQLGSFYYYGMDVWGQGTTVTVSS VL: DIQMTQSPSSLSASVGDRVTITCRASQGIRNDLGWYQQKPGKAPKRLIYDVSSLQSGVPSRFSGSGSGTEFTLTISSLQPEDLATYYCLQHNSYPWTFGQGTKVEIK = 791000
• H1H14503P (antibody, human IgG1, V domains shown, human IgG1 (H1H)) VH: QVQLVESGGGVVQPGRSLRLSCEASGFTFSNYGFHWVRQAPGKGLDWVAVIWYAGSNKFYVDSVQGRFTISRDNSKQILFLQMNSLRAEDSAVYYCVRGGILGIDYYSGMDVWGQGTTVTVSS VL: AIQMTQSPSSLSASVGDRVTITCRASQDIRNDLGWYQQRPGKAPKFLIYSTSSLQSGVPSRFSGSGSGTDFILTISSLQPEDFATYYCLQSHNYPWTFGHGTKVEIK = 1.12e+06
• H4H14521P (antibody, human IgG4, V domains shown, human IgG4 (H4H)) VH: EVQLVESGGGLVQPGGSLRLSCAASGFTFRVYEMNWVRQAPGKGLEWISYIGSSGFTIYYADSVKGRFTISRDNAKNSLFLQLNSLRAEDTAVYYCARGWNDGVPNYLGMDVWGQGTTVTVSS VL: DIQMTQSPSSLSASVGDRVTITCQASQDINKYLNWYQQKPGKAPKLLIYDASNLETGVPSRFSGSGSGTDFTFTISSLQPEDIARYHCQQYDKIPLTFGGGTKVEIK = 1.23e+06
• H4H14528P (antibody, human IgG4, V domains shown, human IgG4 (H4H)) VH: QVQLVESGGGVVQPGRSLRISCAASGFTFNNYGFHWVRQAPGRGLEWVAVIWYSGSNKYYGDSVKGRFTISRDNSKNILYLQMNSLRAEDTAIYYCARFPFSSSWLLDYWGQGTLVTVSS VL: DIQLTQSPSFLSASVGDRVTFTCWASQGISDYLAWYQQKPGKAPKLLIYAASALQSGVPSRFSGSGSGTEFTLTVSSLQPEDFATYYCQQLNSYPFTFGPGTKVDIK = 1.58e+06
• H1H14524P (antibody, human IgG1, V domains shown, human IgG1 (H1H)) VH: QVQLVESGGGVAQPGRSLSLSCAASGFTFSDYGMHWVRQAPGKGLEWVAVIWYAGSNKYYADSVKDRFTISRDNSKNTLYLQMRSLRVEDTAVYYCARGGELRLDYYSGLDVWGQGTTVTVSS VL: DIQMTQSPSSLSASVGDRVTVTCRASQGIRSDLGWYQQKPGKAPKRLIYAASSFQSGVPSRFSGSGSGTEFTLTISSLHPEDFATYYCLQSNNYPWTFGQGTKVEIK = 922000
• H1H14520P (antibody, human IgG1, V domains shown, human IgG1 (H1H)) VH: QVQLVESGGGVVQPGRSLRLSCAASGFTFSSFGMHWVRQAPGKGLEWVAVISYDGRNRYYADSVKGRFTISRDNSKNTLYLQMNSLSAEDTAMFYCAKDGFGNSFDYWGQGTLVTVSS VL: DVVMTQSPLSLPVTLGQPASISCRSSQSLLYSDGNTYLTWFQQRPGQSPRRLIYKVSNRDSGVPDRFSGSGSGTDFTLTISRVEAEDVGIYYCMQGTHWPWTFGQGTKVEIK = 1.09e+06
• H1H14523P (antibody, human IgG1, V domains shown, human IgG1 (H1H)) VH: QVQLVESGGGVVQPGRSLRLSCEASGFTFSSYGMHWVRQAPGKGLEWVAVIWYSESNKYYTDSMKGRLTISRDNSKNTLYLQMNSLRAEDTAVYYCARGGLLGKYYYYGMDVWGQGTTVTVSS VL: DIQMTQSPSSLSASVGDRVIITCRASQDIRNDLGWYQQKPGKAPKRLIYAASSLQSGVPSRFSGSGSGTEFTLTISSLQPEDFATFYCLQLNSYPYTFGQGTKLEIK = 555000
• H1H14486P (antibody, human IgG1, V domains shown, human IgG1 (H1H)) VH: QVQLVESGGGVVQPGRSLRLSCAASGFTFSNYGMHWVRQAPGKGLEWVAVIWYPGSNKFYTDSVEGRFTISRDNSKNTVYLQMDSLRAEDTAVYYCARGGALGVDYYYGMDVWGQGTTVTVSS VL: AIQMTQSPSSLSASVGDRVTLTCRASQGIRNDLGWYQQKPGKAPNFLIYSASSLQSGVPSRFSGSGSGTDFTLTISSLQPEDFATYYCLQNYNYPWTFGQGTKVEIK = 965000
• H4H14470P (antibody, human IgG4, V domains shown, human IgG4 (H4H)) VH: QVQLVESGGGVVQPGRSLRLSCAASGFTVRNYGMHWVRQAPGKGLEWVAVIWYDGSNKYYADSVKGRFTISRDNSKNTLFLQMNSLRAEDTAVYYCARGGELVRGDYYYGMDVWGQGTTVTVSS VL: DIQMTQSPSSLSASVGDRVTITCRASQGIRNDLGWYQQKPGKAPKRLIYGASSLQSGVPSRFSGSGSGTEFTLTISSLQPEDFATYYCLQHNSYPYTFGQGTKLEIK = 904000
• H4H14530P (antibody, human IgG4, V domains shown, human IgG4 (H4H)) VH: QLQLQESGPGLVKPSETLSLTCTVSGGSISSTNHYWGWIRQPPGKGLEWIGNVYYIGNAYYNPSLKTGVTFSVDTSKNQFSLNLRSVTAADTAMYYCARLSNWNFLDLWGQGTLVTVSS VL: EIVMTQSPATLSVSPGERATLSCRASQSISSNLAWYQQKPGQAPRLLIYGASTRATGIPARFSGSGSGTEFTLTISSLQSEDFAVYYCQQFNNWLSFGGGTKVEIK = 293000
